# procedureSummary: Solubility test, equilibrium method, UV-visible spectrophotometry
# Type: physicochemical
# conditionDetails: water, thermodynamic from solid
Some compounds, each annotated with its measured solubility.
metricName: solubility (µg/mL)

INSERT INTO measurements (structuresmilesstring, metricname, unitofmeasure, experimentalvalue) VALUES
  ('CCc1c2c(nc3ccc(OC(=O)OCCOCCOCCOCCOCc4cn(CCO[C@H]5O[C@@H](CO)[C@H](O)[C@@H](O)[C@@H]5O)nn4)cc13)-c1cc3c(c(=O)n1C2)COC(=O)[C@]3(O)CC', 'solubility', 'µg/mL', 1480),
  ('CCc1c2c(nc3ccc(OC(=O)OCCOCc4cn(CCO[C@H]5O[C@@H](CO)[C@H](O)[C@@H](O)[C@@H]5O)nn4)cc13)-c1cc3c(c(=O)n1C2)COC(=O)[C@]3(O)CC', 'solubility', 'µg/mL', 636),
  ('CCc1c2c(nc3ccc(OC(=O)OCCOCCOCc4cn(CCO[C@H]5O[C@@H](CO)[C@H](O)[C@@H](O)[C@@H]5O)nn4)cc13)-c1cc3c(c(=O)n1C2)COC(=O)[C@]3(O)CC', 'solubility', 'µg/mL', 178),
  ('CCc1c2c(nc3ccc(OC(=O)OCCOCc4cn([C@H]5O[C@@H](CO)[C@H](O)[C@@H](O)[C@@H]5O)nn4)cc13)-c1cc3c(c(=O)n1C2)COC(=O)[C@]3(O)CC', 'solubility', 'µg/mL', 159),
  ('CCc1c2c(nc3ccc(OC(=O)OCCOCCOCCOCc4cn([C@H]5O[C@@H](CO)[C@H](O)[C@@H](O)[C@@H]5O)nn4)cc13)-c1cc3c(c(=O)n1C2)COC(=O)[C@]3(O)CC', 'solubility', 'µg/mL', 3050);

###

# procedureSummary: Solubility test, equilibrium method, UV-visible spectrophotometry
# Assay type: physicochemical
# conditionDetails: aqueous with cosolvent or surfactant or cyclodextrin, thermodynamic from solid
# Description: The solubility test is carried out by equilibrium method. […] An appropriate amount of the compound is weighed and dissolved in 1 mL of methanol solution to prepare a control solution with a certain concentration (C0). The concentration of test solution is calculated according to the following formula: Cx=(Ax/A0)C0, wherein Cx is concentration of test solution, Ax is absorbance of test solution, C0 is concentration of control solution, and A0 is absorbance of control solution.
metricName: solubility (µg/mL)

INSERT INTO measurements (molecule, unitofmeasure, experimentalvalue) VALUES
  ('CCc1c2c(nc3ccc(OC(=O)OCCOCc4cn([C@H]5O[C@@H](CO)[C@H](O)[C@@H](O)[C@@H]5O)nn4)cc13)-c1cc3c(c(=O)n1C2)COC(=O)[C@]3(O)CC [Compound 37]', 'µg/mL', 360),
  ('CCc1c2c(nc3ccc(OC(=O)OCCOCCOCCOCCOCc4cn(CCO[C@H]5O[C@@H](CO)[C@H](O)[C@@H](O)[C@@H]5O)nn4)cc13)-c1cc3c(c(=O)n1C2)COC(=O)[C@]3(O)CC [Compound 59]', 'µg/mL', 1200),
  ('CCc1c2c(nc3ccc(OC(=O)OCCOCCOCCOCc4cn(CCO[C@H]5O[C@@H](CO)[C@H](O)[C@@H](O)[C@@H]5O)nn4)cc13)-c1cc3c(c(=O)n1C2)COC(=O)[C@]3(O)CC [Compound 58]', 'µg/mL', 5330),
  ('CCc1c2c(nc3ccc(OC(=O)OCCOCCOCCOCCOCc4cn([C@H]5O[C@@H](CO)[C@H](O)[C@@H](O)[C@@H]5O)nn4)cc13)-c1cc3c(c(=O)n1C2)COC(=O)[C@]3(O)CC [Compound 42]', 'µg/mL', 120),
  ('CCc1c2c(nc3ccc(OC(=O)OCCOCCOCc4cn(CCO[C@H]5O[C@@H](CO)[C@H](O)[C@@H](O)[C@@H]5O)nn4)cc13)-c1cc3c(c(=O)n1C2)COC(=O)[C@]3(O)CC [Compound 57]', 'µg/mL', 6460);
